For each record, write down the corresponding Kd.
Molecular target: RSV prefusion F (preF), subtype B (respiratory syncytial virus, subtype B)
Test: BLI, IgG
A complete answer gives the number and then names the unit.

ADI-20993 (antibody, V domains shown) VH: EVQLVESGGGVVQPGRSLRLTCAASGFPFSSYAMHWVRQAPGKGLEWVAVTWYDGPNRDYADSVKGRFTVSRDNSKNTLYLQMTSLRADDTAVYYCARRGSWGSFDYWGQGTLVTVSS VL: DIVMTQSPLSLSATPGEPASISCRPSQSLLHSNGYNYLEWYLQKPGQSPQLLIYLGSNRASGVPDRFSGGGSGTDFTLRISRVEADDVGVYYCMQASQTPYTFGQGTKVEIK : 0.742 nM
ADI-14416 (antibody, V domains shown, also called Ab 82) VH: QVQLVQSGAEVKKPGESLKISCKGSGDTFSRNWIGWVRQMPGKGLEWMGIIWPGDSDTRYRQFFQGQQGQVIISVDKSISTAYLQWSSLKASDTATYYCATSPYGLGSYYEHWGQGTLVTVSS VL: NFMLTQPHSLSDSPGKTVVISCTRSSGSIASNYVQWYQQRPGSAPTTVIYEDNQRPSGVPDRFSGSIDSSSNSASLTISGLKTEDEADYYCQSYDSSNPYVFGTGTKVTVL : 0.369 nM
ADI-20986 (antibody, V domains shown) VH: EVQLVESGGGLVQPGGSLRLSCVASGFTFSNYWMNWVRQAPGKGLEWVANIKEDGSEIKYVDSVKGRFTISRDNAKNSLYLQMNSLRAEDTAVYYCARTEDSSSWFVAIDYYNYMDVWGKGTTVTVSS VL: DIQVTQSPGTLSLSPGERATLSCRASQTVSSSYLAWYQQKPGQAPRLLFYGASSRATDIPDRFSASGSGTDFTLTIHRLEPEDFAVYYCQLYGRSPPYTFGQGTKVEIK : 1.25 nM
ADI-21030 (antibody, V domains shown) VH: EVQLVESGGGLVKPGGSLRLSCAASGFKFSTYYMSWIRQAPGKGLEWVSNISGGSSYSNHADSVKGRFTISRDNAKNSLYLEMNSLRAEDTAVYYCAREDLMGVSGLAYFEYWGQGILVTVSS VL: QPVLTQPPSVSGAPGQRVTISCTGRSSNIGAGYDVNWYKQLPGAVPKVLIYGNTNRPSGVPDRFSGSKSGNSASLAITGLQAEDEADYYCQSYDRNLGYVFGTGTKLTVL : 0.301 nM

# input for lookup
Q: Kd lookup needed for ADI-21044 (antibody, V domains shown) VH: QVQLVQSGAELKKPGESLKISCKTSGYTFANYWIGWVRQMPGKGLEWMGIIYPGDSDTRYSPSFQGQVTFSADKSINSAYLQWHSLKASDSAIYYCARRFSPDYSDGAAPPTLSDAFDVWGQGTTVTVSS VL: DIVMTQSPSSLSASVGDRVTITCRASQNINIYLNWYQQKPGKAPKLLIYAASTLQSGVPSRFSGSGSATDFTLTISSLQPEDFATYYCQQSYRTPNDFGRGTKVDIK , thanks.
Result: 5.85 nM

Source of measurements: patent US20260258115A1
